details: 298.15 K; 101.33 kPa; Liquid; Vibrating tube method
So I've got a bunch of molecules here, and I need their mass density values.
Numeric answer only, unit kg/m3 assumed.

Input: Query: mass density; subject: CCCCC(=O)[O-].C[NH+]1CCCC1=O [N-methyl-2-oxopyrrolidinium pentanoate]
Output: 990.01

Input: Also need CCC(=O)[O-].C[NH+]1CCCC1=O [N-methyl-2-oxopyrrolidinium propionate] , thanks.
Output: 1027.86

Input: Also need CCCCCC(=O)[O-].C[NH+]1CCCC1=O [N-methyl-2-oxopyrrolidinium hexanoate] , thanks.
Output: 978.81

Input: Also need CCCC(=O)[O-].C[NH+]1CCCC1=O [N-methyl-2-oxopyrrolidinium butanoate] , thanks.
Output: 1006.11

Input: Also need C[NH+]1CCCC1=O.O=C[O-] [N-methyl-2-oxopyrrolidinium formate] , thanks.
Output: 1071.66

Input: Also need CC(=O)[O-].C[NH+]1CCCC1=O [N-methyl-2-oxopyrrolidinium acetate] , thanks.
Output: 1046.06

====

settings: 303.15 K; 101.33 kPa; Liquid; Sing-around technique in a fixed-path interferometer
measured attribute: speed of sound (m/s)
Numeric answer only, unit m/s assumed.

Input: Query: speed of sound; subject: CCCCC(=O)[O-].C[NH+]1CCCC1=O [N-methyl-2-oxopyrrolidinium pentanoate]
Output: 1393

Input: Also need CC(=O)[O-].C[NH+]1CCCC1=O [N-methyl-2-oxopyrrolidinium acetate] , thanks.
Output: 1455.1

Input: Also need CCCCCC(=O)[O-].C[NH+]1CCCC1=O [N-methyl-2-oxopyrrolidinium hexanoate] , thanks.
Output: 1396.7

Input: Also need CCCC(=O)[O-].C[NH+]1CCCC1=O [N-methyl-2-oxopyrrolidinium butanoate] , thanks.
Output: 1400.1

Input: Also need CCC(=O)[O-].C[NH+]1CCCC1=O [N-methyl-2-oxopyrrolidinium propionate] , thanks.
Output: 1424.5

Input: Also need C[NH+]1CCCC1=O.O=C[O-] [N-methyl-2-oxopyrrolidinium formate] , thanks.
Output: 1460.4

====

details: 333.15 K; 101.33 kPa; Liquid; Falling or rolling sphere viscometry
± gives the expanded uncertainty stated by the source.
measured attribute: viscosity
Could you write the number and then its unit?

Input: Query: viscosity; subject: CCCC(=O)[O-].C[NH+]1CCCC1=O [N-methyl-2-oxopyrrolidinium butanoate]
Output: 1.771 ± 0.024 mPa·s

Input: Also need CCC(=O)[O-].C[NH+]1CCCC1=O [N-methyl-2-oxopyrrolidinium propionate] , thanks.
Output: 1.506 ± 0.021 mPa·s

Input: Also need CCCCC(=O)[O-].C[NH+]1CCCC1=O [N-methyl-2-oxopyrrolidinium pentanoate] , thanks.
Output: 1.917 ± 0.026 mPa·s

====

details: 323.15 K; 101.33 kPa; Liquid; Falling or rolling sphere viscometry
measured attribute: viscosity (mPa·s)
Numeric answer only, unit mPa·s assumed.

Input: Query: viscosity; subject: CCCC(=O)[O-].C[NH+]1CCCC1=O [N-methyl-2-oxopyrrolidinium butanoate]
Output: 2.093

Input: Also need C[NH+]1CCCC1=O.O=C[O-] [N-methyl-2-oxopyrrolidinium formate] , thanks.
Output: 1.472

Input: Also need CC(=O)[O-].C[NH+]1CCCC1=O [N-methyl-2-oxopyrrolidinium acetate] , thanks.
Output: 1.66
